Test system: c-myc
Experiment: Inhibition of c-myc expression in cancer cell lines (mRNA, real-time PCR)
Type: cell-based
Set-up: key: Active: Compounds with an IC50 value less than 30 μM were deemed to be active
Conditions: Human AML MV4-11 cells, 3 hours

# molecule, c-myc activity (IC50 < 30 μM)
rows = [
    ("COc1cc(OC)c2c(=O)[nH]c(-c3cc(-c4ccc([S+](C)[O-])cc4)c4[nH]ccc4c3)nc2c1 (stereo not drawn)", "Not Active"),
    ("COc1cc(OC)c2c(=O)[nH]c(-c3ccc(OCCNC(C)C)c(-c4ccc(C(=O)N(C)C)cc4Cl)n3)nc2c1", "Active"),
    ("COc1cc(OC)c2c(=O)[nH]c(-c3cccc(-c4ccc(C(=O)N(C)C)cc4)n3)nc2c1", "Active"),
    ("COc1cccc2nc(-c3ccc(OCCNC(C)C)c(-c4ccc(S(C)(=O)=O)cc4)n3)[nH]c(=O)c12", "Active"),
    ("COc1cc(OC)c2c(=O)[nH]c(-c3ccc(OCCNC(C)C)c(-c4ccc([S+](C)[O-])cc4)c3)nc2c1 (stereo not drawn)", "Active"),
    ("COc1cc(OC)c2c(=O)[nH]c(-c3ccc(OCCO)c(-c4ccc(C(=O)N(C)C)cc4)n3)nc2c1", "Active"),
    ("COc1cc(OC)c2c(=O)[nH]c(-c3cc(-c4ccc([S+](C)[O-])cc4)cs3)nc2c1 (stereo not drawn)", "Not Active"),
    ("COc1cc(OC)c2c(=O)[nH]c(-c3ccc(OC4CNC4)c(-c4ccc(C#N)cc4)c3)nc2c1", "Active"),
    ("COc1cc(OC)c2c(=O)[nH]c(-c3ccc(OC)c(-c4ccc(C(=O)N(C)C)cc4C)n3)nc2c1", "Not Active"),
]

Values compiled from patent US9765039B2.
